System: antibodies in sera from SARS patients (sera 1a, 1b, 2, 6, 37, 62, London, SARS-yellow, SARS-green)
Type: binding, human
RECORDED_ENDPOINT: Binding of serum London to linear peptides of protein X1 of SARS-CoV Urbani

BIOSEQUENCE	ASSAY_VALUE
KGFQFICNLLLLFVT	0.3
NKRWQLALYKGFQFI	0.3
LIYFLQCINACRIIM	0.3
IPLQASLPFGWLVIG	0.3
SVTDTIVVTEGDGIS	0.2
IDGSSGVANPAMDPI	0.4
LYDANYFVCWHTHNY	0.4
HGYFTEVYYQLESTQ	0.2
IGVAFLAVFQSATKI	0.2

---

System: antibodies in sera from SARS patients (sera 1a, 1b, 2, 6, 37, 62, London, SARS-yellow, SARS-green)
Assay type: binding, human
Design: unit not given here
RECORDED_ENDPOINT: Binding of serum London to looped/cyclic peptides of protein N of SARS-CoV Urbani

BIOSEQUENCE	ASSAY_VALUE
VATEGALNTPKDHIG	0.3
LPYGANKEGIVWVAT	0.5
GSRGGSQASSRSSSR	0.7
ASAFFGMSRIGMEVT	0.3
QAFGRRGPEQTQGNF	0.3
IGYYRRATRRVRGGD	0.4
MSDNGPQSNQRSAPR	0.4
NGARPKQRRPQGLPN	0.5
SRSRGNSRNSTPGSS	0.3
SKVSGKGQQQQGQTV	0.8
AAEASKKPRQKRTAT	0.3
SRIGMEVTPSGTWLT	0.4
FTALTQHGKEELRFP	0.2
GAIKLDDKDPQFKDN	0.4
VWVATEGALNTPKDH	1.2
AFGRRGPEQTQGNFG	0.3
YHGAIKLDDKDPQFK	0.3
GNSPARMASGGGETA	0.3
HIDAYKTFPPTEPKK	0.3
NFGDQDLIRQGTDYK	0.3
RVRGGDGKMKELSPR	0.4
RIGMEVTPSGTWLTY	0.6
PDDQIGYYRRATRRV	0.5
PPTEPKKDKKKKTDE	0.2
HWPQIAQFAPSASAF	0.6
SDNGPQSNQRSAPRI	0.4
EGIVWVATEGALNTP	0.3
DDFSRQLQNSMSGAS	0.2
SNQRSAPRITFGGPT	0.9
INTNSGPDDQIGYYR	0.4

---

Tested on: antibodies in sera from SARS patients (sera 1a, 1b, 2, 6, 37, 62, London, SARS-yellow, SARS-green)
Type: binding, human
Reported Binding of serum 1a to linear peptides of protein X1 of SARS-CoV Urbani values for the following sequences.
RECORDED_ENDPOINT: Binding of serum 1a to linear peptides of protein X1 of SARS-CoV Urbani

BIOSEQUENCE	ASSAY_VALUE
RWQLALYKGFQFICN	0.7
LLFVTIYSHLLLVAA	0.7
AGMEAQFLYLYALIY	0.7
SLPFGWLVIGVAFLA	0.7
YVVVHGYFTEVYYQL	0.7
NKRWQLALYKGFQFI	0.7
SKNPLLYDANYFVCW	0.7
QFLYLYALIYFLQCI	0.7
FLYLYALIYFLQCIN	0.7
LYALIYFLQCINACR	0.7

---

Tested on: antibodies in sera from SARS patients (sera 1a, 1b, 2, 6, 37, 62, London, SARS-yellow, SARS-green)
Format: binding, human
Parameters: unit not given here
Measured Binding of serum 6 to linear peptides of protein X2, listed per entry.
RECORDED_ENDPOINT: Binding of serum 6 to linear peptides of protein X2

BIOSEQUENCE	ASSAY_VALUE
ALQELLIQQWIQFMM	0.4
LSLLKVTAFQHQNSK	0.2
MCKYTQSTALQELLI	0.5
TLVLKMLHSSSLTSL	0.4
YTQSTALQELLIQQW	0.4
LKVTAFQHQNSKKTT	0.3
